Target: KATP channels (Homo sapiens, UniProt O60706+Q14654)
Construct: TE671 human medulloblastoma cells were obtained from ATCC; host or cells: TE671 human medulloblastoma cells
Sequence (O60706 1-1549 isoform O60706-2): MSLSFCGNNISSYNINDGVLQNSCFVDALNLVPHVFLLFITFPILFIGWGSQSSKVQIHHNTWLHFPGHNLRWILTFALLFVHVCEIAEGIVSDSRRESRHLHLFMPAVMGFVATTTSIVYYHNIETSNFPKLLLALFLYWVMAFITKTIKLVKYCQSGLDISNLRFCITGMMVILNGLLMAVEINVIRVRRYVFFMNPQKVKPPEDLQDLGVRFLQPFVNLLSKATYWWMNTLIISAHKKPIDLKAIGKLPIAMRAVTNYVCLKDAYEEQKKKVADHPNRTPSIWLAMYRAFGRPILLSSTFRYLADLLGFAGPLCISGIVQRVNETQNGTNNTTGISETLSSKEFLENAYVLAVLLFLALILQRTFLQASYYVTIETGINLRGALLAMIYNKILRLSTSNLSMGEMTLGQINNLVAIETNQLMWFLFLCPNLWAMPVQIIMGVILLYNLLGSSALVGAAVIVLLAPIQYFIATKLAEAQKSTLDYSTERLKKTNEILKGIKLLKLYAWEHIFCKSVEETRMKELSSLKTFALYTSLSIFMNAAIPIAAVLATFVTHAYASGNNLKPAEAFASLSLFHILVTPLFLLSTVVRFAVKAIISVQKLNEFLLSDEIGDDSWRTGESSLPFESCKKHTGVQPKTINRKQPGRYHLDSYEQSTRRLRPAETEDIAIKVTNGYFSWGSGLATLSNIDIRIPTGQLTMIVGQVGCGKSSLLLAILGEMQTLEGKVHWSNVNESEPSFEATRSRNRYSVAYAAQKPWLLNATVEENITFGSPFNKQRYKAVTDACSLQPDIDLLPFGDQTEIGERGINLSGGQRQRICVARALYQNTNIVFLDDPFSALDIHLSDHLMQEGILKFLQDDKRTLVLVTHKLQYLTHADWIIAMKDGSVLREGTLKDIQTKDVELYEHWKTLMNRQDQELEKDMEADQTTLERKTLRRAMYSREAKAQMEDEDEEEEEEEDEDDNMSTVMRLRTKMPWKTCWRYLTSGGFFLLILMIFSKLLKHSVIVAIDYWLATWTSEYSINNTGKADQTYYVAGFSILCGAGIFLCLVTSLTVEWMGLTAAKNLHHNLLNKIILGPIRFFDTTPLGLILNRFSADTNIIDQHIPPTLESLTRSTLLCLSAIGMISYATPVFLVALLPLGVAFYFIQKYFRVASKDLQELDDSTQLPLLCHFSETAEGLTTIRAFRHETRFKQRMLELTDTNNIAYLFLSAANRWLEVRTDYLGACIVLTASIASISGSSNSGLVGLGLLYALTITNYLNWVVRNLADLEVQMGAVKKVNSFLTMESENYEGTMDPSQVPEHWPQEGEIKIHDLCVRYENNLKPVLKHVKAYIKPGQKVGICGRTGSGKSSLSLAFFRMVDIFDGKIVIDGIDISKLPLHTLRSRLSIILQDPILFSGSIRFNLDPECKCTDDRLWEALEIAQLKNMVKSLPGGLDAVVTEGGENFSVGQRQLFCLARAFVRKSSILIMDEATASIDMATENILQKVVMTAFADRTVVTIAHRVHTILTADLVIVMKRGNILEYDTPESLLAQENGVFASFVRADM
Sequence (Q14654 whole entry): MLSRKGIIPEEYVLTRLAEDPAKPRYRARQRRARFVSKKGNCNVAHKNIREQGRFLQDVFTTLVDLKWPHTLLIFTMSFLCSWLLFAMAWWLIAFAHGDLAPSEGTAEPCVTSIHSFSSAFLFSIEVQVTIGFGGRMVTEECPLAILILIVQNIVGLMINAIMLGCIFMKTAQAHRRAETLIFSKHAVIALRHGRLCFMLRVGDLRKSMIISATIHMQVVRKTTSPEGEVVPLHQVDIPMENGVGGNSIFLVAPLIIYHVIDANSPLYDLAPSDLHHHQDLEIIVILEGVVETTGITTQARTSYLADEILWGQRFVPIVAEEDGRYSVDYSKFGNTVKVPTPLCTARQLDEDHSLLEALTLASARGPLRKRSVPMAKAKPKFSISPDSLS
Assay: Potassium Channel Assay (FLIPR membrane potential)
Assay type: cell-based
Set-up: key: A compound was designated as active if it produced greater than or equal to 10% response at 30 μM; A compound was designated as inactive if it produced less than 10% response at 30 μM
Conditions: TE671 human medulloblastoma cells, 30 μM, Membrane Potential Assay Dye
endpoint: response

>>> data_value("CC1(c2nc3ccc(Br)cc3c(=O)[nH]2)CC=NN1 (stereo not shown)")
"active"
>>> data_value("CC1(c2nc3ccc(Cl)cc3c(=O)[nH]2)CC=NN1 (stereo not shown)")
"active"
>>> data_value("CCOC(=O)C1=NNC(C)(c2nc3ccc(Cl)cc3c(=O)[nH]2)C1 (stereo not shown)")
"active"
>>> data_value("CC1(c2nc3cc(C(F)(F)F)ccc3c(=O)[nH]2)CC=NN1 (stereo not shown)")
"active"
